- target.or.test.system: human ETA receptors (Homo sapiens, UniProt P25101)
- Construct: endogenous in cells; host or cells: TE 671 cells (ATCC HTB 139)
- Sequence (P25101 21-427): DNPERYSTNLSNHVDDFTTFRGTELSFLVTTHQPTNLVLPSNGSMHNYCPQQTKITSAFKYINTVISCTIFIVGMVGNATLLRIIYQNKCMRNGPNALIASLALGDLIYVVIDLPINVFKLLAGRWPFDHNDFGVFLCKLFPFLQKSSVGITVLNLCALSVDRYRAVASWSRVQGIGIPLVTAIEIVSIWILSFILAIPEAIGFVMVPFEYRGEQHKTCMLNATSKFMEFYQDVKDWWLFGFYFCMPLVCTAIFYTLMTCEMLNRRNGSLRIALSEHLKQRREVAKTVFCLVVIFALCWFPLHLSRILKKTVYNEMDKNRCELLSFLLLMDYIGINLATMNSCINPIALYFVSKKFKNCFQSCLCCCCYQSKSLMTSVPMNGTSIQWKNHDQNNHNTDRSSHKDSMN
- method.summary: Binding Test #1: inhibition of 125I-ET-1 binding to ETA receptors (TE 671 cell membranes)
- measurement.context: Table 1; incubation at 4° C.; read-out: ETA
pIC50: −log10 of the molar value.
recorded.metric: pIC50

Would you please look over these solved cases?
Cc1noc(NS(=O)(=O)c2c(Cc3ccccc3)sc3ccccc23)c1Br: 7.74
Cc1noc(NS(=O)(=O)c2ccc(CNC(=O)c3ccc(Cl)cc3)s2)c1Br: 6.51
CCCc1ccc(-c2ccc(S(=O)(=O)Nc3onc(C)c3Br)s2)cc1: 5.25
Cc1noc(NS(=O)(=O)c2cc(Br)c(Cl)s2)c1Br: 6.44
Cc1noc(NS(=O)(=O)c2ccc(Sc3ccccc3)o2)c1Br: 5.30

(I) CCCCc1sc2ccccc2c1S(=O)(=O)Nc1onc(C)c1Br
(II) Cc1noc(NS(=O)(=O)c2sccc2-c2ccccc2)c1Br
(III) Cc1noc(NS(=O)(=O)c2ccc(Br)s2)c1Br
(IV) CCc1ccc(-c2ccc(S(=O)(=O)Nc3onc(C)c3Br)s2)cc1
List the 4 entries from lowest pIC50 to highest pIC50 value. Record the ranking as a list of labels in the requested order.
IV, III, II, I
